Test Details: Antiproliferative activity against human U87MG cells expressing wild type p53 after 48 hrs by MTS assay
Assay Conditions: U-87 MG
Property: IC50 (µM)
Answers are plain numbers, in µM.

In [3]: df
Out[3]:
                                   compound  property  scale_unit  reported_value
0  CCOC(=O)[C@H](Cc1ccccc1)NC(=O)[C@H](CC(C)C)NC(=O)C(=O)c1c(-c2ccccc2)[nH]c2ccccc12      IC50          µM             2.6

Let's switch to this compound now.
Supply IC50 value. Item: COc1ccc(C2=NC(c3ccc(Cl)cc3)C(c3ccc(Cl)cc3)N2C(=O)N2CCNC(=O)C2)c(OC(C)C)c1 (configuration not stated) 6.5

---

Tgt: Translocator protein (Rattus norvegicus)
Test Details: Displacement of [3H]PK11195 from TSPO in rat kidney mitochondrial membrane after 90 mins by liquid scintillation counting method
Assay type: cell membranes
Property: inhibition

In [3]: df
Out[3]:
                                smiles_text         reported_value
0  CCOC(=O)[C@H](Cc1ccccc1)NC(=O)[C@H](CC(C)C)NC(=O)C(=O)c1c(-c2ccccc2)[nH]c2ccccc12  Dose-dependent effect
1  CC[C@H](C)[C@H](NC(=O)C(=O)c1c(-c2ccccc2)[nH]c2ccccc12)C(=O)N[C@H](C(=O)OC)[C@@H](C)CC  Dose-dependent effect
2  COC(=O)[C@H](CC(C)C)NC(=O)[C@@H](NC(=O)C(=O)c1c(-c2ccccc2)[nH]c2ccccc12)C(C)C  Dose-dependent effect
3  CC[C@H](C)[C@H](NC(=O)[C@@H](NC(=O)C(=O)c1c(-c2ccccc2)[nH]c2ccccc12)C(C)C)C(=O)OC  Dose-dependent effect
